Test system: 454973-116-R2-J3-PDC spheroids, percent test/control viability
test_protocol: Anticancer human tumor 454973-116-R2-J3-PDC patient-derived pancreatic carcinoma cell line growth inhibition [CLK]
test_settings: curve of first compound; second compound 0.316 µM; spheroids with HUVEC and MSC
pIC50: −log10 of the molar value.
Field: pIC50. Provide a value for each of the molecules that follow.

Answer with the recorded pIC50 of CCN1CCN(Cc2ccc(Nc3ncc(F)c(-c4cc(F)c5nc(C)n(C(C)C)c5c4)n3)nc2)CC1 + CNC(=O)c1ccc(Nc2nc(OC3CCCC3)c3c(-c4ccc5nc(C)oc5c4)c[nH]c3n2)c(OC)c1 only.
> 8.50

Answer with the recorded pIC50 of Nc1ccn(C2OC(CO)C(O)C2(F)F)c(=O)n1 (stereo not given) + CN1CCN(c2cc(C(=O)Nc3cc4cc(-c5cnn(C)c5)ccc4cn3)ccn2)CC1 only.
> 7.50

Answer with the recorded pIC50 of C=CC(=O)N1CCN(c2nc(=O)n(-c3c(C)ccnc3C(C)C)c3nc(-c4c(O)cccc4F)c(F)cc23)C(C)C1 (stereo not given) + CNC(=O)c1ccc(Nc2nc(OC3CCCC3)c3c(-c4ccc5nc(C)oc5c4)c[nH]c3n2)c(OC)c1 only.
7.20

Answer with the recorded pIC50 of C=CC(=O)N1CCN(c2nc(=O)n(-c3c(C)ccnc3C(C)C)c3nc(-c4c(O)cccc4F)c(F)cc23)C(C)C1 (stereo not given) + CN1CCN(c2cc(C(=O)Nc3cc4cc(-c5cnn(C)c5)ccc4cn3)ccn2)CC1 only.
> 7.50

Answer with the recorded pIC50 of CC1(C)CCC(CN2CCN(c3ccc(C(=O)NS(=O)(=O)c4ccc(NCC5CCOCC5)c([N+](=O)[O-])c4)c(Oc4cnc5[nH]ccc5c4)c3)CC2)=C(c2ccc(Cl)cc2)C1 + CNC(=O)c1ccc(Nc2nc(OC3CCCC3)c3c(-c4ccc5nc(C)oc5c4)c[nH]c3n2)c(OC)c1 only.
> 7.50

###

Field: pIC50. Provide a value for each of the compounds that follow.
Test system: 454973-116-R2-J3-PDC spheroids, percent test/control viability
test_protocol: Anticancer human tumor 454973-116-R2-J3-PDC cell line growth inhibition [CLK];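 also: spheroids exposed to compounds for 7 days before readout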
test_settings: curve of first compound; second compound 0.316 µM; spheroids with HUVEC and MSC
pIC50: −log10 of the molar value.

Send back 454973-116-R2-J3-PDC spheroids, percent test/control viability pIC50 of CC(=O)O[C@H]1C(=O)[C@@]2(C)[C@H]([C@H](OC(=O)c3ccccc3)[C@]3(O)C[C@H](OC(=O)[C@H](O)[C@@H](NC(=O)c4ccccc4)c4ccccc4)C(C)=C1C3(C)C)[C@]1(OC(C)=O)CO[C@@H]1C[C@@H]2O + CNC(=O)c1ccc(Nc2nc(OC3CCCC3)c3c(-c4ccc5nc(C)oc5c4)c[nH]c3n2)c(OC)c1 only.
> 7.50

Send back 454973-116-R2-J3-PDC spheroids, percent test/control viability pIC50 of Cn1ncnc1[C@H]1c2n[nH]c(=O)c3cc(F)cc(c23)N[C@@H]1c1ccc(F)cc1 + CN1CCN(c2cc(C(=O)Nc3cc4cc(-c5cnn(C)c5)ccc4cn3)ccn2)CC1 only.
> 9.50

Send back 454973-116-R2-J3-PDC spheroids, percent test/control viability pIC50 of CC(C)CC(NC(=O)C(Cc1ccccc1)NC(=O)c1cnccn1)B(O)O (stereo not given) + CN1CCN(c2cc(C(=O)Nc3cc4cc(-c5cnn(C)c5)ccc4cn3)ccn2)CC1 only.
> 9.02

Send back 454973-116-R2-J3-PDC spheroids, percent test/control viability pIC50 of COc1cccc2c1C(=O)c1c(O)c3c(c(O)c1C2=O)CC(O)(C(=O)CO)CC3OC1CC(N)C(O)C(C)O1 (stereo not given) + CNC(=O)c1ccc(Nc2nc(OC3CCCC3)c3c(-c4ccc5nc(C)oc5c4)c[nH]c3n2)c(OC)c1 only.
> 7.50

Send back 454973-116-R2-J3-PDC spheroids, percent test/control viability pIC50 of CC(Nc1ccc2c(c1)OCCn1cc(N3C(=O)OCC3C(F)F)nc1-2)C(N)=O (stereo not given) + CN1CCN(c2cc(C(=O)Nc3cc4cc(-c5cnn(C)c5)ccc4cn3)ccn2)CC1 only.
> 7.50

Send back 454973-116-R2-J3-PDC spheroids, percent test/control viability pIC50 of C=CC(=O)Nc1cc(Nc2nccc(-c3cn(C)c4ccccc34)n2)c(OC)cc1N(C)CCN(C)C + CNC(=O)c1ccc(Nc2nc(OC3CCCC3)c3c(-c4ccc5nc(C)oc5c4)c[nH]c3n2)c(OC)c1 only.
> 9.02

Send back 454973-116-R2-J3-PDC spheroids, percent test/control viability pIC50 of COc1c(OCCCN2CCOCC2)ccc2c3n(c(=NC(=O)c4cnc(N)nc4)nc12)CCN3 + CN1CCN(c2cc(C(=O)Nc3cc4cc(-c5cnn(C)c5)ccc4cn3)ccn2)CC1 only.
> 8.50

Send back 454973-116-R2-J3-PDC spheroids, percent test/control viability pIC50 of Nc1ccccc1NC(=O)c1ccc(CNC(=O)OCc2cccnc2)cc1 + CNC(=O)c1ccc(Nc2nc(OC3CCCC3)c3c(-c4ccc5nc(C)oc5c4)c[nH]c3n2)c(OC)c1 only.
> 7.50

Send back 454973-116-R2-J3-PDC spheroids, percent test/control viability pIC50 of CC(CO)NC(=O)c1cc(-c2ccc(Cl)cc2)nn(-c2cnn(C)c2)c1=O (stereo not given) + CNC(=O)c1ccc(Nc2nc(OC3CCCC3)c3c(-c4ccc5nc(C)oc5c4)c[nH]c3n2)c(OC)c1 only.
> 7.50

Send back 454973-116-R2-J3-PDC spheroids, percent test/control viability pIC50 of COC1C=CCC(C)C(C)S(=O)(=O)NC(=O)c2ccc3c(c2)N(CC2CCC21)CC1(CCCc2cc(Cl)ccc21)CO3 (stereo not given) + CNC(=O)c1ccc(Nc2nc(OC3CCCC3)c3c(-c4ccc5nc(C)oc5c4)c[nH]c3n2)c(OC)c1 only.
> 7.50

###

Tested on: 454973-116-R2-J3-PDC spheroids, percent test/control viability
test_protocol: Anticancer human tumor 454973-116-R2-J3-PDC cell line growth inhibition [CLK]; active = viability on the fitted dose curve at most 10% of control; inactive = the rest;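 also: spheroids exposed to compounds for 7 days before readout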
test_settings: second compound 10 µM; first compound 0.0316 µM; spheroids with HUVEC and MSC
Allowed answers: class 1 = active, class 0 = inactive

// return assay outcome for CCc1c2c(nc3ccc(O)cc13)-c1cc3c(c(=O)n1C2)COC(=O)[C@]3(O)CC + CNC(=O)c1ccc(Nc2nc(OC3CCCC3)c3c(-c4ccc5nc(C)oc5c4)c[nH]c3n2)c(OC)c1
class 1

// return assay outcome for CCCS(=O)(=O)Nc1ccc(F)c(C(=O)c2c[nH]c3ncc(-c4ccc(Cl)cc4)cc23)c1F + CNC(=O)c1ccc(Nc2nc(OC3CCCC3)c3c(-c4ccc5nc(C)oc5c4)c[nH]c3n2)c(OC)c1
class 0

// return assay outcome for CC(=O)O[C@H]1C(=O)[C@@]2(C)[C@H]([C@H](OC(=O)c3ccccc3)[C@]3(O)C[C@H](OC(=O)[C@H](O)[C@@H](NC(=O)c4ccccc4)c4ccccc4)C(C)=C1C3(C)C)[C@]1(OC(C)=O)CO[C@@H]1C[C@@H]2O + CNC(=O)c1ccc(Nc2nc(OC3CCCC3)c3c(-c4ccc5nc(C)oc5c4)c[nH]c3n2)c(OC)c1
class 0

// return assay outcome for Nc1ccccc1NC(=O)c1ccc(CNC(=O)OCc2cccnc2)cc1 + CNC(=O)c1ccc(Nc2nc(OC3CCCC3)c3c(-c4ccc5nc(C)oc5c4)c[nH]c3n2)c(OC)c1
class 0

// return assay outcome for Cn1ncnc1[C@H]1c2n[nH]c(=O)c3cc(F)cc(c23)N[C@@H]1c1ccc(F)cc1 + CNC(=O)c1ccc(Nc2nc(OC3CCCC3)c3c(-c4ccc5nc(C)oc5c4)c[nH]c3n2)c(OC)c1
class 0

###

System: 454973-116-R2-J3-PDC spheroids, percent test/control viability
test_protocol: Anticancer human tumor 454973-116-R2-J3-PDC cell line growth inhibition [CLK];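 also: spheroids exposed to compounds for 7 days before readout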
test_settings: second compound 10 µM; first compound 0.0316 µM; stronger effect = lower value; spheroids with HUVEC and MSC
Field: viability, T/C. Provide a value for each of the compounds that follow.
Output spec: scalar in %, unitless text.

Answer with the recorded viability, T/C of COc1c(OCCCN2CCOCC2)ccc2c3n(c(=NC(=O)c4cnc(N)nc4)nc12)CCN3 + CN1CCN(c2cc(C(=O)Nc3cc4cc(-c5cnn(C)c5)ccc4cn3)ccn2)CC1 only.
0.15

Answer with the recorded viability, T/C of Nc1ccn(C2OC(CO)C(O)C2(F)F)c(=O)n1 (stereo not given) + CNC(=O)c1ccc(Nc2nc(OC3CCCC3)c3c(-c4ccc5nc(C)oc5c4)c[nH]c3n2)c(OC)c1 only.
13

Answer with the recorded viability, T/C of CC1(C)CCC(CN2CCN(c3ccc(C(=O)NS(=O)(=O)c4ccc(NCC5CCOCC5)c([N+](=O)[O-])c4)c(Oc4cnc5[nH]ccc5c4)c3)CC2)=C(c2ccc(Cl)cc2)C1 + CN1CCN(c2cc(C(=O)Nc3cc4cc(-c5cnn(C)c5)ccc4cn3)ccn2)CC1 only.
0.14

Answer with the recorded viability, T/C of Nc1ccn(C2OC(CO)C(O)C2(F)F)c(=O)n1 (stereo not given) + CN1CCN(c2cc(C(=O)Nc3cc4cc(-c5cnn(C)c5)ccc4cn3)ccn2)CC1 only.
0.16

Answer with the recorded viability, T/C of CC(CO)NC(=O)c1cc(-c2ccc(Cl)cc2)nn(-c2cnn(C)c2)c1=O (stereo not given) + CNC(=O)c1ccc(Nc2nc(OC3CCCC3)c3c(-c4ccc5nc(C)oc5c4)c[nH]c3n2)c(OC)c1 only.
30.3
